# assay-system: T1, human SETD3, wild type (recombinant, tag cleaved) (human, UniProt Q86TU7 1-594)
# T1 construct: SETD3, actin histidine methyltransferase, human; codon-optimised gene in vector 2G-T; also called WT SETD3; SETD3 WT; source: E. coli BL21*(DE3), purified (Glutathione Sepharose 4B, TEV digest, His-Trap FF flow-through; Superdex 200 Increase for BLI)
# T1 sequence: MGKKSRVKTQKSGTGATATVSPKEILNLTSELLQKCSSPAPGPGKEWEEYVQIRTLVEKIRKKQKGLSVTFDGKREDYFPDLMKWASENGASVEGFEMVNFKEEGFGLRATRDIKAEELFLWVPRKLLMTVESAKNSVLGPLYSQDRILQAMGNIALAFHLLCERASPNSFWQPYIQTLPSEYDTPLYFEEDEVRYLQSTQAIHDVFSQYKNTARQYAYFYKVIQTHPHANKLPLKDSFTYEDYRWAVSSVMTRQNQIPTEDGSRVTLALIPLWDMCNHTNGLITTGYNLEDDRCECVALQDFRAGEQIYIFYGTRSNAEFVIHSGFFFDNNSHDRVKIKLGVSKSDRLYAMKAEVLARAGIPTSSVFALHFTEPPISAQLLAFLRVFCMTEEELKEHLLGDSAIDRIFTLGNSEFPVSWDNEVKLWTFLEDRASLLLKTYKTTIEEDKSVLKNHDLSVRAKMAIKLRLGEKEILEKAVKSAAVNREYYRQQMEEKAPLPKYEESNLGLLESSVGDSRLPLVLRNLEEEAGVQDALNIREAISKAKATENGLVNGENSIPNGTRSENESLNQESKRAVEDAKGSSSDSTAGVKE
# protocol-text: BLI; competition: His-tagged 2A on Ni-NTA biosensors, 3-fold dilution series of actin peptide (40 nM to 10 µM) with SETD3 constant at 310 nM; 20 mM Tris/HCl pH 8.0, 150 mM NaCl, 5% glycerol, 1 mM DTT; maximum binding against peptide concentration
# condition-description: both partners purified
quantity: IC50

**Q:** Please report IC50 for the following binder: TLKYPIELGIVTNWDD (also called actin peptide 66-81 with His73 replaced by leucine; source: synthetic peptide) [synthetic actin peptide, residues 66-81, H73L]
**A:** 1500 to 3400 nM
